System: EKVX NSCLC
experiment notes: NCI tumour cell line growth inhibition, 48 h
Please enter yes (1) where TGI is greater than or equal to 30 µM, and no (0) where it is lower.

Please review the following examples before continuing.
CC1SC(=O)SC1C (centres undefined) : yes (1)
CC(C)(C)N(Cc1ccoc1)C(=O)/C=C\S(=O)c1ccccc1 (centres undefined) : yes (1)
C/C(=N\NC(=S)NNC(=S)N(C)c1ccccc1)c1ccccn1 : no (0)

// switching to the query molecule
Enquiry: Determine whether measured TGI meets or exceeds 30 µM for CC1=NN(C(=O)c2ccccc2O)C(c2ccccc2Cl)C1C(=O)Nc1ccccc1 (centres undefined)
Return: yes (1)
